- assay_method_text: Serum concentration and pharmacokinetics of SCI after oral gavage in Wistar rats
- Assay type: in vivo, Wistar rat
- recorded_conditions: male, Wistar, rat, serum, po, 10 mg/kg, Rat No 2; oral 10 mg/kg
measure: AUC(0-t) (ng·h/mL)

[[record]]
smiles_notation = "O[C@H]1[C@H](O)[C@@H](O)[C@H](O)[C@@H](O)[C@@H]1O"
uom = "ng·h/mL"
result_number = 38600


---

- assay_method_text: Serum concentration and pharmacokinetics of SCI after oral gavage in Wistar rats
- Type: in vivo, Wistar rat
- recorded_conditions: male, Wistar, rat, serum, po, 10 mg/kg, Rat No 5; serum; oral 10 mg/kg; read-out: K (elimination rate constant) (converted)
measure: k el (s⁻¹)

[[record]]
smiles_notation = "O[C@H]1[C@H](O)[C@@H](O)[C@H](O)[C@@H](O)[C@@H]1O"
uom = "s⁻¹"
result_number = "4.47e-05"

